Tested on: XIP peptide (Xip251-270)
Assay: small-molecule binders of XIP peptide, primary screen, biochemical, small-molecule microarray, fluorescence 635/667 nm, 0.5 µg/mL protein (AID 1183)
Conditions: small-molecule microarray binding, fluorescence 635 nm; higher = more signal
Provide the reported composite z-score of each item.
Numbers only.

Recorded composite z-score, per entry:
O=C1C[C@@](C(=O)NC2CC2)(c2ccc([N+](=O)[O-])cc2)[C@@H](c2ccc(CO)cc2)N1CC12CC3CC(CC(C3)C1)C2; 0.611
O=C(OCCF)C1=CCC(c2cccc(Cl)c2)O1 (stereo not drawn); 0.0075
CCCN1C(=O)[C@@]2(CCC(=O)OC(C)(C)C)N=C(c3ccc(OCCCO)cc3)O[C@H]2c2ccccc21; 0.563

List the reported composite z-score of each molecule below.
1. COc1ccc(CCNC(=O)[C@@]2(Sc3ccc(C)cc3)CC(=O)N(Cc3ccccc3Cl)[C@@H]2c2ccc(CO)cc2I)cc1
2. N#Cc1ccc(NN2C(C(O)c3ccc([N+](=O)[O-])cc3)C=CC3C(=O)N(c4ccccc4)C(=O)C32)cc1 (stereo not drawn)
3. C=CC[C@]1(C(=O)N2CCOCC2)N=C(c2ccc(OCCCO)cc2)O[C@H]1c1ccccc1
4. CO[C@H]1O[C@H](CO)[C@@H](OC(=O)Nc2ccc3c(c2)OCO3)[C@H](OC(=O)Nc2ccccc2)[C@H]1OC(=O)Nc1ccccc1
5. CCOC(=O)C[C@H]1[C@H](OC(=O)c2ccccc2-c2ccccc2)[C@@H](NC(=O)Cc2ccc(OC)cc2)c2cc(OCCCO)ccc2N1C(=O)c1ccccc1
6. COC(=O)[C@@]1(Cc2ccc(F)cc2)[C@H]2c3cc(C(=O)N(C)C)n(CCc4ccccn4)c3C[C@H]2CN1C(=O)c1ccccc1
7. CC1=C2[C@@H](CCc3ccccc3)OB(O)C[C@@H]2n2c(=O)n(-c3ccccc3)c(=O)n2C1

**A:**
[0.391, 0.807, 0.362, 0.831, 0.127, 0.234, 0.777]

====

Target: Dickkopf-related protein 1 (Homo sapiens)
Test: DKK1 binders on small-molecule microarrays, primary screen, biochemical, small-molecule microarray, 635 nm fluorescence scan (AID 1106);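 note: score merges emission near 667 nm with signal to noise over three replicate slides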
Settings: DKK1 binding, higher = more signal
Provide the reported composite z-score of each item.

Cc1ccc([C@H]2[C@H](C(=O)O)[C@H](Sc3ccccc3)[C@@H](C(C)C)N2S(=O)(=O)c2ccc(C)cc2)cc1; 0.168
COC(=O)c1ccc(OC)c(/C=C\CC(OC(C)=O)c2ccccc2)c1 (centres undefined); 0.305

List the reported composite z-score of each compound below.
1. CC(C)N1CC=CC23O[C@@H]4C=CCOC(=O)[C@@H]4[C@H]2C(=O)N(CCO)[C@@H]3C1=O (some centres undefined)
2. O=C1O[C@@H](c2ccccc2)[C@@H](c2ccccc2)N2[C@@H](c3ccc(OCCO)cc3)[C@]3(C(=O)Nc4ccccc43)[C@@H](C(=O)Nc3nc4ccccc4s3)[C@H]12
3. CO[C@H]1O[C@H](CO)[C@@H](OC(=O)Nc2ccc3c(c2)OCO3)[C@H](OC(=O)Nc2ccccc2)[C@H]1OC(=O)Nc1ccccc1
4. O=C(CS)NCCCCCCNC(=O)[C@H]1C[C@H]2C(=O)NCC(=O)N2[C@H]1c1ccc(O)cc1
5. CCC(CC)C(O)C1C=CC2C(=O)N(c3ccccc3)C(=O)C2N1Nc1ccc(C#N)cc1 (centres undefined)
6. CN1C(=O)C2C(C1=O)C1C=C(CCCO)C2C(c2cccs2)N1C (centres undefined)

**A:**
-1.61
0.651
0.295
0.22
-0.197
-0.559

**Q:** Could you share which composite z-score value was measured for `CC(=O)Nc1cc(Br)ccc1C(=O)O` ?
**A:** -0.44

====

Experiment: basal RPMI8226 viability, no added stimulus, profiling panel, cell-based, calcein-AM fluorescence, 48 h, PK04 Diversity Set (AID 1166);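 note: cells grown under basal conditions without added stimulus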
Settings: RPMI8226 myeloma viability, higher = more signal
measured attribute: z-score
Numbers only.

List the reported z-score of each molecule below.
1. CCOC(=O)C[C@H]1[C@H](OC(=O)c2ccc(-c3ccccc3)cc2)[C@@H](NC(=O)Cc2ccc(OC)cc2)c2cc(OCCCO)ccc2N1C(=O)c1ccc2ccccc2n1
2. O=C(OCCF)C1=CCC(c2cccc(Cl)c2)O1 (stereo not given)
3. CC1=C2[C@@H](CCc3ccccc3)OB(O)C[C@@H]2n2c(=O)n(-c3ccccc3)c(=O)n2C1
4. C[N+](C)(C)CCCCCCNC(=O)[C@H]1C[C@H]2C(=O)N3CCC[C@H]3C(=O)N2[C@H]1c1ccc(O)cc1
5. N[C@@H](Cc1ccccc1)Cn1cc(-c2ccccc2)nn1
6. COC(=O)C[C@H]1O[C@]2(C(=O)N(Cc3ccccc3)c3ccc(NC(C)=O)cc32)[C@@H](C)[C@@H]1[Si](C)(C)c1ccc(OC)cc1
7. NC(=O)NCC#Cc1ccc2c(c1)[C@]1(C(=O)N2)[C@H](C(=O)NC[C@H](O)c2ccccc2)[C@H]2C(=O)O[C@H](c3ccccc3)[C@H](c3ccccc3)N2[C@@H]1c1ccc(O)cc1
8. COc1ccc([Si](C)(C)[C@@H]2[C@@H](CC(=O)N3CCC[C@H]3CO)O[C@]3(C(=O)N(C)c4c(Br)cc(C)cc43)[C@H]2C)cc1

**A:**
-0.129
0.669
-1.14
0
-0.0672
-2.57
0.579
-1.04

List the reported z-score of each molecule below.
1. C=CC[C@@H](OC(=O)Nc1ccc(OC)cc1)c1ccc(O)c2ccccc12
2. CCOC(=O)C[C@H]1[C@H](OC(=O)Cc2ccc3c(c2)OCO3)[C@@H](NC(=O)c2ccc(-c3ccccc3)cc2)c2cc(OCCCO)ccc2N1C(=O)c1ccccc1
3. C[C@H]1NC(=O)[C@H](Cc2ccccc2)NC(=O)[C@@]23C(=O)N[C@@H](Cc4ccccc4)C2[C@H](C)[C@@]2(C)O[C@H]2C3/C=C/C/C=C\CNC1=O (stereo not given in full)
4. COC(=O)c1ccc(C(O)C2C=CC3C(=O)N(c4ccccc4)C(=O)C3N2Nc2ccc(C#N)cc2)o1 (stereo not given)
5. CCCCC=C[C@@H](NC(=O)c1ccc(C(=O)OC)cc1)c1ccccc1
6. COC(=O)c1ccc(C23CC2(C(NP(=O)(c2ccccc2)c2ccccc2)c2ccccc2)C3)cc1 (stereo not given)
7. CN1C(=O)C2C(C1=O)C1C=C(CCCO)C2C(c2cccs2)N1C (stereo not given)

**A:**
[-4.3, 0.0317, -1.27, -1.52, -2.6, -3.34, 0.664]

List the reported z-score of each molecule below.
1. COCC(=C=CC[C@H](O)c1ccc(OCCO)cc1)C[C@H](O)c1cc(Cl)cc(Cl)c1O
2. COC(=O)[C@@]1(Cc2ccc(OC)cc2)[C@H]2c3cc(C(=O)N4CCCC4)n(Cc4cc(F)cc5c4OCOC5)c3C[C@H]2CN1C(=O)c1ccccc1
3. COc1ccc(CCN2C(=O)[C@@]3(Cc4ccccc42)c2ccccc2C(=O)N(Cc2ccccc2Cl)[C@H]3c2ccc(CO)cc2)cc1
4. COc1ccc(C(O)C2C=CC3C(=O)N(c4ccccc4)C(=O)C3N2Nc2ccc([N+](=O)[O-])cc2)cc1OCc1ccccc1 (stereo not given)
5. COC(=O)C1=CC(CCCO)=CC(C2CC2)N(Cc2sc3ccccc3c2Cl)C=C1C(=O)OC (stereo not given)

**A:**
1. -0.638
2. -3.81
3. -0.441
4. -0.378
5. -4.06

====

Experiment: A549 cell viability effects, profiling panel, calcein-AM fluorescence, 48 h, basal (AID 1162)
Settings: higher = more signal
measured attribute: z-score

CCOc1cc(C(O)C2C=CC3C(=O)N(c4ccccc4)C(=O)C3N2Nc2ccc([N+](=O)[O-])cc2)ccc1O (stereo not given); -0.499
CCN(CC)c1ccc(N2CC=CC34O[C@@H]5/C=C\CCCOC(=O)C5[C@H]3C(=O)N(C(CO)C(C)C)[C@@H]4C2=O)cc1 (stereo not given in full); -0.0889
NCCCCCNC(=O)[C@H]1C[C@H]2C(=O)NCC(=O)N2[C@H]1c1cccc(OCCO)c1; 1.5
CC(C)C[C@@H]1NC(=O)[C@@H]2C[C@H](C(=O)NCCCCCC[N+](C)(C)C)[C@H](c3ccc(O)cc3)N2C1=O; -0.633

// next item, z-score requested
**Q:** Could you share which z-score value was measured for `COc1ccc(C(=O)Nc2cccc(CN3C(=O)[C@@]4(O[C@@H](CCn5cc(CCO)nn5)[C@H]([Si](C)(C)c5ccc(OC)cc5)[C@H]4C)c4ccccc43)c2)cc1` ?
**A:** -1.31

====

Assay: PSAC antagonists in infected red cells, primary screen, cell-based, P. falciparum Indochina, OD700, 18 h (AID 1157)
Conditions: P. falciparum Indochina infected erythrocytes, osmotic lysis OD700, 18 h; higher = more signal, called active from +8 up or from −8 down
Returns one of fulfilled or not fulfilled; fulfilled when z-score is >= 1.

[N-]=[N+]=NCc1ccccc1C[C@]1(C(=O)NCC(O)CO)N=C(c2ccc(OCCCO)cc2)O[C@H]1c1ccccc1N=[N+]=[N-] (some centres undefined); fulfilled
Cc1ccc(S[C@]2(C(=O)NCCN3CCOCC3)CC(=O)N(Cc3cc(C(F)(F)F)cc(C(F)(F)F)c3)[C@@H]2c2ccc(CO)cc2I)cc1; not fulfilled
Cc1ccccc1C(O)C1C=CC2C(=O)N(C)C(=O)C2N1Nc1ccccc1 (centres undefined); fulfilled
Cc1ccc([C@H]2[C@H](C(=O)O)[C@H](Sc3ccccc3)[C@@H](C(C)C)N2S(=O)(=O)c2ccc(C)cc2)cc1; not fulfilled
CCOC(=O)C[C@H]1[C@H](OC(=O)c2ccccc2-c2ccccc2)[C@@H](NC(=O)Cc2ccc(OC)cc2)c2cc(OCCCO)ccc2N1C(=O)c1ccccc1; not fulfilled

**Q:** Hi, just wondering whether `O=C(NCc1ccccc1)[C@]1(CCS(=O)(=O)c2ccccc2)N=C(c2ccc(OCCCO)cc2)O[C@@H]1c1ccccc1` shows z-score of 1 or higher.
**A:** fulfilled

**Q:** Hi, just wondering whether `COCCOC(=O)N1C(=O)[C@@]2(c3cc(C#CCNC(N)=O)ccc31)[C@H](c1ccc(O)cc1)N1[C@H](c3ccccc3)[C@H](c3ccccc3)OC(=O)[C@H]1[C@@H]2C(=O)Nc1nc2ccccc2s1` shows z-score of 1 or higher.
**A:** not fulfilled

**Q:** Hi, just wondering whether CC(C)(C)N1CC=CC23O[C@@H]4/C=C\CCCOC(=O)C4[C@H]2C(=O)N(CCO)[C@@H]3C1=O (some centres undefined) shows z-score of 1 or higher.
**A:** not fulfilled

**Q:** Hi, just wondering whether `CC(C)(C)OC(=O)CC[C@]1(C(=O)N2CCCCC2)N=C(c2ccc(OCCCO)cc2)O[C@H]1c1ccccc1N=[N+]=[N-]` shows z-score of 1 or higher.
**A:** fulfilled

**Q:** Hi, just wondering whether `C=CC(=C)C1=CCO[C@@H]1[C@H]1CCCN1S(=O)(=O)c1ccccc1[N+](=O)[O-]` shows z-score of 1 or higher.
**A:** not fulfilled

**Q:** Hi, just wondering whether `CCCCC=C[C@@H](NC(=O)c1cccs1)c1ccccc1` shows z-score of 1 or higher.
**A:** fulfilled

**Q:** Hi, just wondering whether `COc1ccc([Si](C)(C)[C@H]2[C@H](CCn3cc([C@H](O)c4ccccc4)nn3)O[C@@]3(C(=O)N(Cc4cccc(N5CCC5=O)c4)c4ccccc43)[C@@H]2C)cc1` shows z-score of 1 or higher.
**A:** not fulfilled

**Q:** Hi, just wondering whether `COc1ccc(C#Cc2ccc3c(c2)[C@]2(C(=O)N3)[C@H](C(=O)NC[C@H](O)c3ccccc3)[C@H]3C(=O)O[C@H](c4ccccc4)[C@H](c4ccccc4)N3[C@@H]2c2ccc(OCCO)cc2)cc1` shows z-score of 1 or higher.
**A:** fulfilled

**Q:** Hi, just wondering whether `COCCOC(=O)N1C(=O)[C@@]2(c3ccccc31)[C@H](C(=O)Nc1nc3ccccc3s1)[C@H]1C(=O)O[C@H](c3ccccc3)[C@H](c3ccccc3)N1[C@@H]2c1ccc(OCCO)cc1` shows z-score of 1 or higher.
**A:** fulfilled

**Q:** Hi, just wondering whether Cc1cc(C)c(C(O)C2C=CC3C(=O)N(c4ccccc4)C(=O)C3N2Nc2ccc(C#N)cc2)c(C)c1 (centres undefined) shows z-score of 1 or higher.
**A:** fulfilled

Origin of values: PubChem BioAssay
